Structures can show the parent of a compound that is named as a salt.
Here the recorded melting point is given for each entry.

Task: State, in one line, measured melting point of CN(C)CC1C2CCC(C2)C1c1ccc2ccccc2c1 (stereo not drawn) (as salt: hydrochloride) [cis- N,N-dimethyl(3-naphthalen-2-ylbicyclo[2.2.1]hept-2-yl)m]
Result: 255 to 257 °C

Task: State, in one line, measured melting point of CN(C)CC1C2CCC(C2)C1c1ccc2ccccc2c1 (stereo not drawn) (as salt: hydrochloride) [trans-endo-N,N-dimethyl(3-naphthalen-2-ylbicyclo[2.2.1]hept-]
Result: 249 to 250 °C

Task: State, in one line, measured melting point of Cc1csc2ccc([C@@H]3[C@H]4CC[C@H](C4)[C@H]3CN(C)C)cc12 (as salt: hydrochloride)
Result: 250 to 252 °C

Task: State, in one line, measured melting point of CN(C)C[C@H]1[C@H]2CC[C@H](C2)[C@@H]1c1ccc2ccsc2c1 (as salt: hydrochloride)
Result: 240 to 242 °C

Task: State, in one line, measured melting point of CN(C)C[C@H]1[C@H]2CC[C@H](C2)[C@@H]1c1ccc2cc(F)ccc2c1 (as salt: hydrochloride)
Result: 137 to 138 °C

###

Target: [3H]-citalopram binding sites on rat cerebral cortical membranes (serotonin reuptake) (Rattus norvegicus, UniProt P31652)
Construct: from tissue; host or cells: rat cerebral cortex membranes
Sequence (P31652 whole entry): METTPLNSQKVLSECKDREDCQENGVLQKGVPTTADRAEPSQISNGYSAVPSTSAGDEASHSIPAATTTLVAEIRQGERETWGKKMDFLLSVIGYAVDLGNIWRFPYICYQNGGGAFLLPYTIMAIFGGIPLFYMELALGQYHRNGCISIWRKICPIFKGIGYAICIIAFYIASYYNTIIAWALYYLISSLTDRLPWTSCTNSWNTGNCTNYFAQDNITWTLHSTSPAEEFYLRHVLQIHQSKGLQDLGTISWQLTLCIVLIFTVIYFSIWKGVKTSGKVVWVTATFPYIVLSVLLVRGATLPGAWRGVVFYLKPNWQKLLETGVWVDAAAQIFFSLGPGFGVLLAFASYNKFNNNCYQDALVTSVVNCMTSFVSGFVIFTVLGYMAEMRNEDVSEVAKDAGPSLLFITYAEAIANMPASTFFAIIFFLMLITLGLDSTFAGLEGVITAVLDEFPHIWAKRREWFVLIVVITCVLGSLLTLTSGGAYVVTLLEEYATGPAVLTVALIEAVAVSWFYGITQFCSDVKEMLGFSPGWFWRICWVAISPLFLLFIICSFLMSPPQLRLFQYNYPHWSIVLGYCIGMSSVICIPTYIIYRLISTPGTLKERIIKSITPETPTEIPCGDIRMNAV
Experiment: [3H]-Citalopram binding assay
measuredMetric: Ki

>>> print(df.to_string())
                                   compound  measuredmetric  valuemeasured
0  CN(C)C[C@H]1[C@H]2CC[C@H](C2)[C@@H]1c1ccc2cc(F)ccc2c1              Ki       < 100 nM
1  CNCC1C2CCC(C2)C1c1ccc2ccccc2c1 (stereo not drawn)              Ki       < 100 nM

# input for lookup
Task: State, in one line, measured Ki of CN(C)CC1C2CCC(C2)C1c1ccc2ccccc2c1 (stereo not drawn)
Result: < 100 nM
